test: qHTS assay for small molecule disruptors of the mitochondrial membrane potential (AID 720635); conditions: HepG2 mitochondrial membrane potential, Mito-MPS dye ratio; series mostly up to 83.2 µM
Inconclusive results are not listed. Active and inactive are the calls of the source. Calls follow the shape of the dose curve; as a rule, active = well fitted inhibition curve with a large enough effect in the signal ratio in the repeat runs; inconclusive = weak or mixed curves, or effect the other way; inactive = flat fitted curve, though single readings scatter; the % refers to the signal ratio.
The reply should be one of these categories: true (1) (active), false (0) (inactive)

Example entries begin here.
# Compound, Assigned Class
rows = [
    ("COC(=O)C1=C(C)NC(COC(N)=O)=C(C(=O)OC(C)C)C1c1cccc(Cl)c1Cl (centres undefined)", "true (1)"),
    ("COc1ccc(S(=O)(=O)N2C(=O)[C@@](c3ccccc3OC)(N3C[C@H](O)C[C@H]3C(=O)N(C)C)c3cc(Cl)ccc32)c(OC)c1", "false (0)"),
    ("CCCn1cnc2c1c(=O)n(CCCCC(C)=O)c(=O)n2C", "false (0)"),
]

*Q* Kindly provide the recorded test outcome for the following compound: CCCCCCCC/C=C\CCCCCCCC(=O)OCC
*A* false (0)

----------
test: qHTS assay to identify small molecule antagonists of the constitutive androstane receptor (CAR) signaling pathway - cell viability counter screen (AID 1224837); conditions: HepG2-CYP2B6-hCAR viability, CellTiter-Fluor, 23 h, co-treated with 50 nM CITCO; series mostly up to 92.4 µM; also: nearly all actives have a fitted effect of over 45% in size
Inconclusive results are not listed. Calls of active or inactive are those of the source. Calls come from the whole dose curve; as a rule, active = well fitted cell-killing curve with a large enough effect in the repeat runs; inconclusive = weak or mixed curves, or effect the other way; inactive = flat fitted curve, though single readings scatter.
The reply should be one of these categories: active, inactive

Example entries begin here.
# Compound, Assigned Class
data = [
    ("Cc1cc(N)c2cc(NC(=O)Nc3ccc4nc(C)cc(N)c4c3)ccc2n1", "inactive"),
    ("Cc1cccc(C)c1OCC(=O)N[C@@H](Cc1ccccc1)[C@@H](O)C[C@H](Cc1ccccc1)NC(=O)[C@H](C(C)C)N1CCCNC1=O", "active"),
    ("O=C1OC(CN2CCOCC2)CN1/N=C/c1ccc([N+](=O)[O-])o1 (stereo not given)", "inactive"),
    ("COC(C)OC", "inactive"),
]

*Q* Kindly provide the recorded test outcome for the following compound: CCOC(=O)C1=C[C@]2(CC)CCCN3CCc4c(n1c1ccccc41)[C@@H]32
*A* inactive

----------
biological target: Peroxisome proliferator-activated receptor gamma (Homo sapiens) (UniProt P37231); assay: qHTS assay to identify small molecule agonists of the peroxisome proliferator-activated receptor gamma (PPARg) signaling pathway (AID 743094); settings: HEK293H PPARg-UAS-bla, beta-lactamase FRET ratio, 17 h; series mostly up to 57 µM; also: % is scaled to controls: 0 for no effect and ±100 for the full control effect
Sequence (P37231 whole entry, looked up): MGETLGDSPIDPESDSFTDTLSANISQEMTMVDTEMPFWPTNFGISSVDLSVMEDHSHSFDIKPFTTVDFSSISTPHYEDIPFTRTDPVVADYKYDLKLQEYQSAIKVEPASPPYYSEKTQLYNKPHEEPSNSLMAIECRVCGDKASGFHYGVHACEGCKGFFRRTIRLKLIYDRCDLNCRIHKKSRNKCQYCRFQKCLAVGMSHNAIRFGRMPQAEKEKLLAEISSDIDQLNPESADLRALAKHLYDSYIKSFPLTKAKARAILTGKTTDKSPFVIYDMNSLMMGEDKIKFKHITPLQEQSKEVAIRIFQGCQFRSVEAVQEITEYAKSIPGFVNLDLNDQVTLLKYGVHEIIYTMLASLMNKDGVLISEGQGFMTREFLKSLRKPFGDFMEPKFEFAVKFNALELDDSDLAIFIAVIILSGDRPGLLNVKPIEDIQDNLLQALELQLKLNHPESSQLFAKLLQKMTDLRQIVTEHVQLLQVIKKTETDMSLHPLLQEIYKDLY
Inconclusive results are not listed. The source made the active and inactive calls. Calls follow the shape of the dose curve; as a rule, active = well fitted activation curve with a large enough effect in the signal ratio in the repeat runs (not every such curve was filed as active); inconclusive = weak or mixed curves, or effect the other way; inactive = no such curve, though single readings can be large or run the other way; the % refers to the signal ratio.
Endpoint Name: outcome

Take a look at these entries with their results.
# Compound, Observed Value
measured = [
    ("C=C1[C@H]2CC[C@@H]3[C@H]2C(C)(C)CCC[C@]13C", "inactive"),
    ("OCCNCc1ccccc1", "inactive"),
    ("CN(C)c1ccc(CCO)cc1", "inactive"),
    ("O=C(CS)Nc1ccccc1", "inactive"),
    ("COc1ccc(-c2nc3ccc(C4=NNC(=O)CC4C)cc3[nH]2)cc1 (centres undefined)", "inactive"),
    ("CCO[Si](CCCCl)(OCC)OCC", "inactive"),
    ("CCCCC(CC)COC(=O)CCCCCCCCC(=O)OCC(CC)CCCC (centres undefined)", "inactive"),
    ("CCN(CC)CCOC(=O)C(c1ccccc1)C1CCCCC1 (centres undefined)", "inactive"),
]

# outcome of CCOC(=O)NCCOc1ccc(Oc2ccccc2)cc1 = inactive

# outcome of c1cc(CCCc2ccncc2)ccn1 = inactive

# outcome of CCCCCCCCCOS(=O)(=O)O = inactive

----------
molecular target: Thyrotropin receptor (Homo sapiens) (UniProt P16473); assay: qHTS assay to identify small molecule antagonists of the thyroid stimulating hormone receptor (TSHR) signaling pathway (AID 1259385); settings: TSHR-HEK293 cAMP HTRF, TSH-stimulated antagonist mode; series mostly up to 92.4 µM; also: nearly all actives have a fitted effect of over 20% in size
Sequence (P16473 whole entry, looked up): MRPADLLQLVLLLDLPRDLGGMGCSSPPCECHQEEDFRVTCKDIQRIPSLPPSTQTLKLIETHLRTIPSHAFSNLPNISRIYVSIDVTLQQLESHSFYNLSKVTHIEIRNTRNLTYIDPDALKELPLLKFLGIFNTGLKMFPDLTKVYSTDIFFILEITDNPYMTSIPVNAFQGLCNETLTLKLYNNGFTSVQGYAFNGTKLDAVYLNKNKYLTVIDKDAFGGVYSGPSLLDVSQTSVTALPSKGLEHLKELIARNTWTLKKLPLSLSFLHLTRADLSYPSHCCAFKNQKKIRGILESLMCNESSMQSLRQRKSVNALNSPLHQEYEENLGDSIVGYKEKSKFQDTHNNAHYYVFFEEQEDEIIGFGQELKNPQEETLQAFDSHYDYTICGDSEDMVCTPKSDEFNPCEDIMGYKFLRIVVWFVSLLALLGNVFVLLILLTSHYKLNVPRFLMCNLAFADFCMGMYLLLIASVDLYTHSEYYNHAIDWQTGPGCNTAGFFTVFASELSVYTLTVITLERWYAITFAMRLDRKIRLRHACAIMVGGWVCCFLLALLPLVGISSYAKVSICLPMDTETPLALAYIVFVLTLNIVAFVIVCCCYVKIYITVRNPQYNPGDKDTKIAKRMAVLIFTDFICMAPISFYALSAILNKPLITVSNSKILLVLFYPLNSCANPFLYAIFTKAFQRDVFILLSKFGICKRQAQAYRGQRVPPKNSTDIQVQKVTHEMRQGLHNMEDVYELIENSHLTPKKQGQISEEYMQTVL
Records with an inconclusive call do not appear. The source made the active and inactive calls. The call rests on the fitted dose curve.
The reply should be one of these categories: active, inactive

Example entries begin here.
# Compound, Assigned Class
records = [
    ("O=C(Cl)c1cc(C(=O)Cl)cc(C(=O)Cl)c1", "active"),
    ("CN1CCC(N(Cc2cccs2)c2ccccc2)CC1", "inactive"),
    ("COc1cc2c(cc1OC)C(C(C(=O)N(CCc1ccc(OC)c(OC)c1OC)CCc1ccc(OC)c(OC)c1OC)c1ccccc1)=NCC2 (centres undefined)", "inactive"),
    ("COC(C)(C)CCO", "inactive"),
    ("Nc1cccc(S(=O)(=O)c2cccc(N)c2)c1", "inactive"),
    ("CN(C)c1ccc(CCO)cc1", "inactive"),
]

*Q* Kindly provide the recorded test outcome for the following compound: CC(C)C[C@H]1C(=O)N2CCC[C@H]2[C@]2(O)O[C@](NC(=O)[C@@H]3C=C4c5cccc6[nH]c(Br)c(c56)C[C@H]4N(C)C3)(C(C)C)C(=O)N12
*A* inactive

*Q* Kindly provide the recorded test outcome for the following compound: COc1cc2nc(N(C)CCCNC(=O)C3CCCO3)nc(N)c2cc1OC (centres undefined)
*A* inactive

*Q* Kindly provide the recorded test outcome for the following compound: O=S(c1cc(Cl)cc(Cl)c1O)c1cc(Cl)cc(Cl)c1O
*A* inactive

*Q* Kindly provide the recorded test outcome for the following compound: CCOc1ccc(N)c([N+](=O)[O-])c1
*A* inactive

*Q* Kindly provide the recorded test outcome for the following compound: O=C(OCCCCCCOC(=O)c1ccccc1)c1ccccc1
*A* inactive

*Q* Kindly provide the recorded test outcome for the following compound: CCCCCCCCCCCCCCCCCCOS(=O)(=O)O
*A* active

*Q* Kindly provide the recorded test outcome for the following compound: CN(C)CCN(Cc1ccccc1)c1ccccn1
*A* inactive

*Q* Kindly provide the recorded test outcome for the following compound: CN(C)CCOC(c1ccccc1)c1ccc(Br)cc1 (centres undefined)
*A* inactive

*Q* Kindly provide the recorded test outcome for the following compound: CCN(CC)CCNC(=O)c1cc(Br)c(N)cc1OC
*A* inactive

*Q* Kindly provide the recorded test outcome for the following compound: CCN(CC)CCOC(=O)C(c1ccccc1)C1CCCCC1 (centres undefined)
*A* active

*Q* Kindly provide the recorded test outcome for the following compound: OC(C#CCN1CCCC1)(c1ccccc1)c1ccccc1
*A* inactive

*Q* Kindly provide the recorded test outcome for the following compound: CNCCCN1c2ccccc2CCc2ccccc21
*A* active

*Q* Kindly provide the recorded test outcome for the following compound: COc1ccc(S(=O)(=O)N2C(=O)[C@@](c3ccccc3OC)(N3C[C@H](O)C[C@H]3C(=O)N(C)C)c3cc(Cl)ccc32)c(OC)c1
*A* inactive

----------
experiment: qHTS assay to identify small molecule agonists of the constitutive androstane receptor (CAR) signaling pathway - cell viability counter screen (AID 1224836); conditions: HepG2-CYP2B6-hCAR viability, CellTiter-Fluor, 23 h, PK11195 added to every well; series mostly up to 92.4 µM; also: % is scaled to controls: 0 for no effect and ±100 for the full control effect; nearly all actives have a fitted effect of over 45% in size
Records with an inconclusive call do not appear. Calls of active or inactive are those of the source. Calls follow the shape of the dose curve; as a rule, active = well fitted cell-killing curve with a large enough effect in the repeat runs; inconclusive = weak or mixed curves, or effect the other way; inactive = flat fitted curve, though single readings scatter.
Endpoint Name: viability change, negative = cytotoxic

Take a look at these entries with their results.
# Compound, viability change, negative = cytotoxic
data = [
    ("O=C(O)c1nc(Cl)c(Cl)c(Cl)c1Cl", "inactive"),
    ("CCOC(=O)C1=C[C@]2(CC)CCCN3CCc4c(n1c1ccccc41)[C@@H]32", "inactive"),
    ("CC(C)(O)c1ccc(CNC(=O)c2cccnc2Oc2ccc(F)cc2)cc1", "inactive"),
    ("CCC(CC)Nc1ccc(C)c(C)c1", "inactive"),
    ("CCOC(=O)C(=O)CCc1ccccc1", "inactive"),
    ("OC[C@H]1O[C@@H](OCCc2ccc(O)cc2)[C@H](O)[C@@H](O)[C@@H]1O", "inactive"),
    ("C/C(=C(\\CCOP(=O)(O)O)SC(=O)c1ccccc1)N(C=O)Cc1cnc(C)nc1N", "-1.07% [at 8.39 µM] (inactive)"),
    ("NCC(=O)O", "-11.9% [at 19 µM] (inactive)"),
    ("CCOc1ccc(N)c([N+](=O)[O-])c1", "inactive"),
    ("COc1cc2c(cc1OC)C(C(C(=O)N(CCc1ccc(OC)c(OC)c1OC)CCc1ccc(OC)c(OC)c1OC)c1ccccc1)=NCC2 (stereo unspecified)", "inactive"),
]

# viability change, negative = cytotoxic of Nc1c(CC(=O)O)cccc1C(=O)c1ccc(Br)cc1 = inactive

----------
test: qHTS RealTime-Glo MT Cell Viability Assay in HEK293 cells - 8 hour (AID 1224887); conditions: RealTime-Glo luminescence; series mostly up to 76.8 µM; also: nearly all actives have a fitted effect of over 50% in size
Results filed as inconclusive are left out. Active and inactive are the calls of the source. The call rests on the fitted dose curve; in most records, active means well fitted cell-killing curve with a large enough effect in the repeat runs; inconclusive means weak or mixed curves, or effect the other way; inactive means flat fitted curve, though single readings scatter.
The reply should be one of these categories: active, inactive

Example entries begin here.
# Mol, Assigned Class
rows = [
    ("O=C(O)C1(C(=O)O)CCC1.[NH2-].[NH2-].[Pt+2]", "inactive"),
    ("CCCCCCCCCc1ccc(OCCOCCO)cc1", "active"),
    ("COS(=O)(=O)C(F)(F)F", "inactive"),
    ("O=[N+]([O-])c1ccc(NCCO)c(OCCO)c1", "inactive"),
]

*Q* Kindly provide the recorded test outcome for the following molecule: Cc1oc2c(NC(=O)c3c(Cl)cccc3Cl)cccc2c1C(C)(C)O
*A* inactive

*Q* Kindly provide the recorded test outcome for the following molecule: O=P(O)(OCc1ccccc1)OCc1ccccc1
*A* inactive

*Q* Kindly provide the recorded test outcome for the following molecule: CC(C)(CO)[N+](=O)[O-]
*A* inactive
